Each entry below lists one item and its recorded Activity value.
Test system: Rattus norvegicus
Experimental Details: Anti-inflammatory activity in Wistar albino rat model of carragenan-induced paw edema assessed as reduction in edema thickness at 28 uM/kg, ip measured after 3 hrs by plethysmometer (reference value: 1.64 +/- 0.04 millimeter)
Type: functional
Parameters: scale not given: the % may be the effect or the level left
Condition: at 28 µmol/kg
The answer is to be given in %; state only the numeric part.

Example compounds with recorded Activity:
COc1ccc(N2CCN(CCc3c(C)nc4oc(-c5ccc(Cl)cc5)nn4c3=O)CC2)cc1
73.12
COc1ccc(N2CCN(CCc3c(C)nc4oc(-c5ccccc5)nn4c3=O)CC2)cc1
73.12
Cc1nc2oc(-c3ccccc3)nn2c(=O)c1CCN1CCCCC1
76.25
COc1ccc2c(c1)c(CC(=O)O)c(C)n2C(=O)c1ccc(Cl)cc1
73.29

As a next step, examine the compound that follows.
Which value of Activity has been reported for "Cc1nc2oc(-c3ccc(Cl)cc3)nn2c(=O)c1CCN1CCN(c2ccccc2)CC1" in the records?
94.75

* * *

Experimental Details: Ulcerogenic activity in fasted albino rat assessed as number of ulcers at 28 uM/kg, po administered for 3 consecutive days (reference value: 0 %)
Type: toxicity, organism-based
Condition: in vivo, 72 h, time 3 day
Property Measured: Activity (%)
Give the value in % but do not write % after it.

# annotated cases, reported Activity shown
Cc1nc2oc(-c3ccccc3)nn2c(=O)c1CCN1CCCCC1
2.2
COc1ccc2c(c1)c(CC(=O)O)c(C)n2C(=O)c1ccc(Cl)cc1
2.6
COc1ccc(N2CCN(CCc3c(C)nc4oc(-c5ccc(Cl)cc5)nn4c3=O)CC2)cc1
0.8
COc1ccc(N2CCN(CCc3c(C)nc4oc(-c5ccccc5)nn4c3=O)CC2)cc1
0.8

Query: Activity; subject: "Cc1nc2oc(-c3ccc(Cl)cc3)nn2c(=O)c1CCN1CCN(c2ccccc2)CC1"
0.6

* * *

Tested on: Rattus norvegicus
Experimental Details: Anti-inflammatory activity Wistar albino rat model of carragenan-induced paw edema assessed as inhibition of inflammation at 28 uM/kg, ip measured after 3 hrs by plethysmometer relative to control
Assay type: functional
Design: scale not given: the % may be the effect or the level left
Condition: at 28 µmol/kg
Checkbox rule: Activity lower than 70% = satisfied; Activity not lower than 70% = not satisfied.

Example cases with answers are listed next.
Cc1nc2oc(-c3ccccc3)nn2c(=O)c1CCN1CCCCC1
satisfied
COc1ccc(N2CCN(CCc3c(C)nc4oc(-c5ccccc5)nn4c3=O)CC2)cc1
satisfied
COc1ccc2c(c1)c(CC(=O)O)c(C)n2C(=O)c1ccc(Cl)cc1
satisfied

Shifting focus to the molecule that follows.
# check: Activity < 70% for "COc1ccc(N2CCN(CCc3c(C)nc4oc(-c5ccc(Cl)cc5)nn4c3=O)CC2)cc1"
not satisfied

* * *

Overview of reported UI across a group of compounds:
Experimental Details: Ulcerogenic activity in fasted albino rat assessed as ulcer index at 28 uM/kg, po administered for 3 consecutive days (reference value: 0)
Format: toxicity, organism-based
Condition: in vivo, 72 h, time 3 day
No unit in the answer, only the number.

Worked examples follow.
Cc1nc2oc(-c3ccccc3)nn2c(=O)c1CCN1CCCCC1
7.4
COc1ccc2c(c1)c(CC(=O)O)c(C)n2C(=O)c1ccc(Cl)cc1 [INDOMETHACIN]
11.78
COc1ccc(N2CCN(CCc3c(C)nc4oc(-c5ccc(Cl)cc5)nn4c3=O)CC2)cc1
5.8

Looking for the measured UI of "COc1ccc(N2CCN(CCc3c(C)nc4oc(-c5ccccc5)nn4c3=O)CC2)cc1" , can you help?
3.8

Same question, "Cc1nc2oc(-c3ccc(Cl)cc3)nn2c(=O)c1CCN1CCN(c2ccccc2)CC1" this time
5.6

* * *

Experimental Details: Ulcerogenic activity in fasted albino rat assessed as incidence of ulceration at 28 uM/kg, po administered for 3 consecutive days (reference value: 0 %)
Format: toxicity, organism-based
Condition: in vivo, 72 h, time 3 day
Property Measured: Activity (%)
The reply should be a number in %, with the unit left off.

Cc1nc2oc(-c3ccc(Cl)cc3)nn2c(=O)c1CCN1CCN(c2ccccc2)CC1
4
COc1ccc(N2CCN(CCc3c(C)nc4oc(-c5ccc(Cl)cc5)nn4c3=O)CC2)cc1
4
COc1ccc(N2CCN(CCc3c(C)nc4oc(-c5ccccc5)nn4c3=O)CC2)cc1
2
COc1ccc2c(c1)c(CC(=O)O)c(C)n2C(=O)c1ccc(Cl)cc1
8

As a next step, examine the compound that follows.
If you can, please state the reported Activity value of "Cc1nc2oc(-c3ccccc3)nn2c(=O)c1CCN1CCCCC1" .
4
